Entries and their measured Fold-Synergistic 1a (Q30E) follow.
Tested on: HCV replicon, genotype-1a variant with glutamine 30 changed to glutamate in the NS5A protein
Test: microbe, parasite or virus in culture
Format: cell-based, HCV genotype 1a
Settings: HCV replicon genotype 1a Q30E (Q→E) variant; test compound titrated with an NS5A-targeting compound (BMS-790052 fixed at 200 nM); ranking of synergist activity
Description: The NS5A synergistic inhibitory effect of test compounds can be determined using various amounts of an NS5A-targeting compound with titration of a second compound of interest. […] In one embodiment, the HCV genotype strain can be genotype 1a containing a change at amino acid 30 of the NS5A protein consisting of glutamine to glutamate. The test compound can be chosen from compounds listed above or from others present in the literature.

Q) Query Fold-Synergistic 1a (Q30E) for O=C(c1cnc2ccccc2c1)N1CCC[C@H]1c1ncc(-c2ccc(-c3ccc(-c4cnc([C@@H]5CCCN5C(=O)c5cnc6ccccc6c5)[nH]4)cc3)cc2)[nH]1 [Compound S-124]
A) >10 fold

Q) Give me measured Fold-Synergistic 1a (Q30E), please, for this compound: O=C(N1CCC[C@H]1c1ncc(-c2ccc(-c3ccc(-c4cnc([C@@H]5CCCN5C(=O)C5(c6ccccc6F)CCCC5)[nH]4)cc3)cc2)[nH]1)C1(c2ccccc2F)CCCC1 [Compound S-155]
A) <10 fold

Q) Consider the compound CC(C)(C)[C@H](NC(=O)C1CCCCC1c1ccccc1)c1nc(-c2ccc(-c3ccc(-c4c[nH]c([C@@H](NC(=O)C5CCCCC5c5ccccc5)C(C)(C)C)n4)cc3)cc2)c[nH]1 (some centres unmarked) [Compound S-269] and give its recorded Fold-Synergistic 1a (Q30E).
A) >100 fold

Q) Answer with the recorded Fold-Synergistic 1a (Q30E) for the compound listed here: COC(=O)C1(C(=O)N[C@H](c2nc(-c3ccc(-c4ccc(-c5c[nH]c([C@@H](NC(=O)C6(C(=O)OC)CC6)C(C)(C)C)n5)cc4)cc3)c[nH]2)C(C)(C)C)CC1 [Compound W-124]
A) >100 fold

Q) Indicate its recorded Fold-Synergistic 1a (Q30E); the compound in question is CC(C)[C@H](NC(=O)C1CC(F)(F)C1)c1nc(-c2ccc3c(c2)Cc2cc(-c4c[nH]c([C@@H](NC(=O)C5CC(F)(F)C5)C(C)C)n4)ccc2-3)c[nH]1 [Compound N-71]
A) >100 fold

====

In this section we review reported Fold-Synergistic 1a (Q30E) values for a set of compounds.
Tested on: HCV replicon, genotype-1a variant with glutamine 30 changed to glutamate in the NS5A protein
Assay: microbe, parasite or virus in culture
Assay type: cell-based, HCV genotype 1a
Conditions: HCV replicon genotype 1a Q30E (Q→E) variant; test compound titrated with an NS5A-targeting compound (BMS-790052 fixed at 200 nM); ranking of synergist activity

# count of solved cases: 3
CC(C)(OCC(F)F)C(=O)N[C@H](c1nc(-c2ccc(-c3ccc(-c4c[nH]c([C@@H](NC(=O)C(C)(C)OCC(F)F)C5(C)CC5)n4)cc3)cc2)c[nH]1)C1(C)CC1 = >100 fold
COC(=O)N[C@H](C(=O)NC1(c2nc(-c3ccc(-c4ccc(-c5c[nH]c(C6(NC(=O)[C@@H](NC(=O)OC)C(C)C)CC=CC6)n5)cc4)cc3)c[nH]2)CC=CC1)C(C)C = <10 fold
COc1cccc2c(C(=O)N3CCC[C@H]3c3ncc(-c4ccc(-c5ccc(-c6cnc([C@@H]7CCCN7C(=O)c7nccc8c(OC)cccc78)[nH]6)cc5)cc4)[nH]3)nccc12 = >100 fold

Q) Please supply the value of reported Fold-Synergistic 1a (Q30E) for the item `CC(C)(C)[C@H](NC(=O)c1ccccc1F)c1nc(-c2ccc(-c3ccc(-c4c[nH]c([C@@H](NC(=O)c5ccccc5F)C(C)(C)C)n4)c(F)c3)cc2)c[nH]1`
A) >100 fold

Q) Report measured Fold-Synergistic 1a (Q30E); entry is `CC(C)(C)OC(=O)N1C[C@H](F)C[C@H]1C(=O)N[C@H](c1nc(-c2ccc(-c3ccc(-c4c[nH]c([C@@H](NC(=O)[C@@H]5C[C@@H](F)CN5C(=O)OC(C)(C)C)C5(C)CC5)n4)cc3)cc2)c[nH]1)C1(C)CC1`
A) >100 fold

Q) Give recorded Fold-Synergistic 1a (Q30E). `O=C(c1ccnc2ccccc12)N1CCC[C@H]1c1ncc(-c2ccc(-c3ccc(-c4cnc([C@@H]5CCCN5C(=O)c5ccnc6ccccc56)[nH]4)cc3)cc2)[nH]1`
A) <10 fold

Q) Return reported Fold-Synergistic 1a (Q30E). Input compound: COc1cccc2c(C(=O)N3C(c4ncc(-c5ccc(-c6ccc(-c7cnc(C8C[C@H]9C[C@H]9N8C(=O)c8nc(Cl)cc9c(OC)cccc89)[nH]7)cc6)cc5)[nH]4)C[C@H]4C[C@H]43)nc(Cl)cc12 (stereo partly drawn)
A) >100 fold

Q) Report Fold-Synergistic 1a (Q30E) for `CC(C)[C@H](NC(=O)[C@@H]1C[C@@H](F)CN1C(=O)OC(C)(C)C)c1nc(-c2ccc(-c3ccc(-c4c[nH]c([C@@H](NC(=O)[C@@H]5C[C@@H](F)CN5C(=O)OC(C)(C)C)C(C)C)n4)cc3)cc2)c[nH]1`
A) >100 fold

Q) Using known records, supply Fold-Synergistic 1a (Q30E) for `CC(C)(C)OC(=O)N[C@]1(C(=O)N[C@H](c2nc(-c3ccc(-c4ccc(-c5c[nH]c([C@@H](NC(=O)[C@@]6(NC(=O)OC(C)(C)C)C[C@H]6c6ccccc6)C(C)(C)C)n5)cc4)cc3)c[nH]2)C(C)(C)C)C[C@H]1c1ccccc1`
A) >100 fold

====

Listed here are molecules together with their documented Fold-Synergistic 1a (Q30E).
Test system: HCV replicon, genotype-1a variant with glutamine 30 changed to glutamate in the NS5A protein
Assay: microbe, parasite or virus in culture
Format: cell-based, HCV genotype 1a
Conditions: HCV replicon genotype 1a Q30E (Q→E) variant; test compound titrated with an NS5A-targeting compound (BMS-790052 fixed at 200 nM); ranking of synergist activity

Before answering, review these 8 worked examples.
O=C(Cc1ccccc1)N1CCC[C@H]1c1ncc(-c2ccc(-c3ccc(-c4cnc([C@@H]5CCCN5C(=O)Cc5ccccc5)[nH]4)cc3)cc2)[nH]1 = <10 fold
C[C@H]1CCN(C(=O)C(=O)N2CCC(F)(F)CC2)C1c1nc(-c2ccc(-c3ccc(-c4c[nH]c([C@@H]5[C@@H](C)CCN5C(=O)C(=O)N5CCC(F)(F)CC5)n4)cc3)cc2)c[nH]1 (stereo partly shown) [Compound W-186] = >100 fold
CC(C)(C)[C@H](NC(=O)[C@@H]1CCCN1CC(F)(F)F)c1nc(-c2ccc(-c3ccc(-c4c[nH]c([C@@H](NC(=O)[C@@H]5CCCN5CC(F)(F)F)C(C)(C)C)n4)cc3)cc2)c[nH]1 = >100 fold
N#CC1(C(=O)N2CCC[C@H]2c2ncc(-c3ccc(-c4ccc(-c5cnc([C@@H]6CCCN6C(=O)C6(C#N)CC6)[nH]5)cc4)cc3)[nH]2)CC1 = <10 fold
CC(C)(C)OC(=O)C[C@H](C(=O)N[C@H](c1nc(-c2ccc(-c3ccc(-c4c[nH]c([C@@H](NC(=O)[C@@H](CC(=O)OC(C)(C)C)C5CCCC5)C(C)(C)C)n4)cc3)cc2)c[nH]1)C(C)(C)C)C1CCCC1 = >100 fold
O=C(CCN1CCOCC1)N1CCC[C@H]1c1ncc(-c2ccc(-c3ccc(-c4cnc([C@@H]5CCCN5C(=O)CCN5CCOCC5)[nH]4)cc3)cc2)[nH]1 = <10 fold
CC(C)(C)[C@H](NC(=O)C(=O)N1CCC(F)(F)C1)c1nc(-c2ccc(-c3ccc(-c4c[nH]c([C@@H](NC(=O)C(=O)N5CCC(F)(F)C5)C(C)(C)C)n4)cc3)cc2)c[nH]1 = >100 fold
O=C(Cc1ccc2ccccc2c1)N1CCC[C@H]1c1ncc(-c2ccc(-c3ccc(-c4cnc([C@@H]5CCCN5C(=O)Cc5ccc6ccccc6c5)[nH]4)cc3)cc2)[nH]1 = >10 fold

Q) Give Fold-Synergistic 1a (Q30E) for the following molecule: `O=C(C1CC1)N1CCC[C@H]1c1ncc(-c2ccc(-c3ccc(-c4cnc([C@@H]5CCCN5C(=O)C5CC5)[nH]4)cc3)cc2)[nH]1`
A) <10 fold

Q) Tell us which Fold-Synergistic 1a (Q30E) value is on record for `CC(C)(C)[C@H](NC(=O)C1(C2(O)CCOCC2)CCC1)c1ncc(-c2ccc(-c3ccc(-c4cnc([C@@H](NC(=O)C5(C6(O)CCOCC6)CCC5)C(C)(C)C)[nH]4)cc3)cc2)[nH]1`
A) >100 fold

====

Tested on: HCV replicon, genotype-1a variant with glutamine 30 changed to glutamate in the NS5A protein
Experiment: microbe, parasite or virus in culture
Type: cell-based, HCV genotype 1a
Details: HCV replicon genotype 1a Q30E (Q→E) variant; test compound titrated with an NS5A-targeting compound (BMS-790052 fixed at 200 nM); ranking of synergist activity
Let's look at some compounds and their measured Fold-Synergistic 1a (Q30E).

Q) Identify measured Fold-Synergistic 1a (Q30E) associated with `CC(C)[C@H](NC(=O)c1cc(Cl)ccc1F)c1nc(-c2ccc(-c3ccc(-c4c[nH]c([C@@H](NC(=O)c5cc(Cl)ccc5F)C(C)C)n4)c(F)c3)cc2)c[nH]1`
A) >100 fold

Q) Indicate its recorded Fold-Synergistic 1a (Q30E); the compound in question is CC(C)(C)[C@H](NC(=O)C(F)(F)C1CCCCO1)c1nc(-c2ccc(-c3ccc(-c4c[nH]c([C@@H](NC(=O)C(F)(F)C5CCCCO5)C(C)(C)C)n4)cc3)cc2)c[nH]1 (some centres unmarked)
A) >100 fold

Q) Quick one: give measured Fold-Synergistic 1a (Q30E) for `O=C(c1ccsc1)N1CCC[C@H]1c1ncc(-c2ccc(-c3ccc(-c4cnc([C@@H]5CCCN5C(=O)c5ccsc5)[nH]4)cc3)cc2)[nH]1`
A) <10 fold

Q) # return recorded Fold-Synergistic 1a (Q30E) for input `COC(=O)N[C@@H](C(=O)N[C@@H](CC(C)C)c1nc(-c2ccc(-c3ccc(-c4c[nH]c([C@H](CC(C)C)NC(=O)[C@H](NC(=O)OC)C(C)C)n4)cc3)cc2)c[nH]1)C(C)C`
A) >10 fold

Q) # return recorded Fold-Synergistic 1a (Q30E) for entry `CC(C)[C@H](NC(=O)C(C)(C)F)c1nc(-c2ccc3c(c2)CCc2cc(-c4c[nH]c([C@@H](NC(=O)C(C)(C)F)C(C)C)n4)ccc2-3)c[nH]1`
A) >100 fold
